target: RORγ-LBD (RORγt) (Homo sapiens); construct: the 6-His-(GST) RORγ-LBD was used which expressed and purified from baculovirus infected Sf-21 insect cells; made in house; host or cells: baculovirus-infected Sf-21 insect cells; test: TR-FRET RORγt Binding Assay; conditions: 6-His(GST)RORγ-LBD, SRC1_2 peptide, read-out: RORγt Binding
Sequence (P51449 269-508 limits assumed): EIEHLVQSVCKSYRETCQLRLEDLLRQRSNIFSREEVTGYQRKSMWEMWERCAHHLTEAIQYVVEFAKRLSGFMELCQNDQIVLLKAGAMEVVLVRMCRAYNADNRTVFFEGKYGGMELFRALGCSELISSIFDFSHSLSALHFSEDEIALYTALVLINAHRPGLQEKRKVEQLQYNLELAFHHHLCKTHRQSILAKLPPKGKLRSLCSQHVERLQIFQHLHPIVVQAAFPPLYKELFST
Observed Property: IC50

# example entries with known answers
[[record]]
compound = "COc1cc2c(cc1-c1ccccc1OC(F)(F)F)CC(Cc1ncccc1C(F)(F)F)C2=O (centres unmarked)"
test_result = "< 500 nM"

[[record]]
compound = "COc1cc2c(c(N3CCC(C)CC3)c1OC)CC(Cc1ccc(SC(F)(F)F)cc1)C2=O (centres unmarked)"
test_result = "> 1000 nM"

[[record]]
compound = "COc1cc2c(cc1O)C(=O)C(Cc1ncccc1C(F)(F)F)C2 (centres unmarked)"
test_result = "< 500 nM"

[[record]]
compound = "COc1cc2c(cc1N1CCN(C)CC1)CC(Cc1cccc(C(F)(F)F)c1Cl)C2=O (centres unmarked)"
test_result = "< 500 nM"

[[record]]
compound = "COc1cc2c(cc1N1CCOCC1)CC(Cc1c(F)ccc(C(O)(C(F)(F)F)C(F)(F)F)c1F)C2=O (centres unmarked)"
test_result = "< 500 nM"

[[record]]
compound = "COc1cc2c(cc1NC1CCN(C)CC1)CC(Cc1ncccc1C(F)(F)F)C2=O (centres unmarked)"
test_result = "> 1000 nM"

[[record]]
compound = "COc1cc2c(cc1N1CCOCC1)CC(Cc1cc(C(F)(F)F)cc(C(O)(C(F)(F)F)C(F)(F)F)c1)C2=O (centres unmarked)"
test_result = "< 500 nM"

[[record]]
compound = "COc1cc2c(cc1N1CCOCC1)CC(Cc1cccc(OC(F)(F)F)c1)C2=O (centres unmarked)"
test_result = "> 1000 nM"


// query IC50 value for entry COc1cc2c(cc1N1CCOCC1)CC(Cc1cc(C(F)(F)F)ccc1F)C2=O (centres unmarked) > 1000 nM

// query IC50 value for entry `COc1cc2c(cc1N1CCOCC1)C/C(=C\c1cc(Br)cc(OC(F)(F)F)c1)C2=O` > 10000 nM

// query IC50 value for entry COc1cc2c(cc1N1CCC(C)CC1)CC(Cc1cccc(C(F)(F)F)c1)C2=O (centres unmarked) > 1000 nM

// query IC50 value for entry COc1cc2c(cc1N1CCC(C)CC1)CC(Cc1ccc(SC(F)(F)F)cc1)C2=O (centres unmarked) < 500 nM

// query IC50 value for entry COc1cc2c(cc1N1CCOCC1)CC(Cc1cccc(C(O)(C(F)(F)F)C(F)(F)F)n1)C2=O (centres unmarked) < 500 nM

// query IC50 value for entry CCS(=O)(=O)Oc1cc2c(cc1OC)CC(Cc1ccc(SC(F)(F)F)cc1)C2=O (centres unmarked) < 500 nM

// query IC50 value for entry COc1cc2c(cc1N1CCOCC1)CC(Cc1cc(C)n[nH]1)C2=O (centres unmarked) > 1000 nM

// query IC50 value for entry COc1cc2c(cc1N1CCNCC1)CC(Cc1ncccc1C(F)(F)F)C2=O (centres unmarked) [compound 249] > 1000 nM

// query IC50 value for entry COc1cc2c(cc1N1CCOCC1)CC(Cc1c(F)cccc1F)C2=O (centres unmarked) > 1000 nM

Hey, just so you know, these numbers are from patent US9446047B2.
